- ASSAY_SYSTEM: KRAS G12V (Homo sapiens, UniProt P01116, G12V)
- Sequence (P01116 1-188 isoform P01116-2 G12V): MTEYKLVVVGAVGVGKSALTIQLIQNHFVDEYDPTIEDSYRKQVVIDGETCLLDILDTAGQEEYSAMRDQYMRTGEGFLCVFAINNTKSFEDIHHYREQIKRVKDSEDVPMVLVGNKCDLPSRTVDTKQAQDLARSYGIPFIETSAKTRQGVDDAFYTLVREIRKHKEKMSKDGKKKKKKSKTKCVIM
- EXPERIMENT: GDP-GTP exchange assay, KRAS G12V (bodipy-GDP/GppNHp, SOS1)
- Format: biochemical
- MEASUREMENT_PARAMETERS: bodipy-loaded KRAS G12V 2.5 nM, 3 hours pre-incubation with inhibitor, SOS1 150 nM, GppNHp 500 uM; read-out: G12V_exchange (KRAS_G12V exchange assay IC50)
pIC50: −log10 of the molar value.
Each entry below carries its reported pIC50.

[
  {
    "COMPOUND": "N#CCCc1cc2c3c(c(Cc4ccccc4)nc2c(F)c1-c1cc(O)cc2ccccc12)NC(=O)CN3C1C2CNC1C2 (single isomer, unassigned) [Example 8a]",
    "pIC50": "5.30 to 6.00"
  },
  {
    "COMPOUND": "C[C@H](Oc1nc2c(F)c(-c3cc(O)cc4ccccc34)c(CCC#N)cc2c2c1CCCN2C1C2CNC1C2)[C@@H]1CCCN1C (single isomer, unassigned) [Example 15b]",
    "pIC50": "≥ 7.00"
  },
  {
    "COMPOUND": "C[C@@H](CN(C)C)Oc1nc2c(F)c(-c3cc(O)cc4ccccc34)c(CCC#N)cc2c2c1NC(=O)CN2C1C2CNC1C2 (single isomer, unassigned) [Example 11c]",
    "pIC50": "≥ 7.00"
  },
  {
    "COMPOUND": "CNC(=O)c1ccc(-c2nc3c(F)c(-c4cc(O)cc5ccccc45)c(CCC#N)cc3c3c2NC(=O)CN3C2C3CNC2C3)cn1 (single isomer, unassigned) [Example 5a]",
    "pIC50": "≥ 7.00"
  },
  {
    "COMPOUND": "CN1CCC[C@H]1COc1nc2c(F)c(-c3cc(O)cc4ccccc34)c(CCC#N)cc2c2c1CCCN2C1C2CNC1C2 (single isomer, unassigned) [Example 12b]",
    "pIC50": "≥ 7.00"
  }
]

###

- ASSAY_SYSTEM: KRAS G12D (Homo sapiens, UniProt P01116, G12D)
- Sequence (P01116 1-188 isoform P01116-2 G12D): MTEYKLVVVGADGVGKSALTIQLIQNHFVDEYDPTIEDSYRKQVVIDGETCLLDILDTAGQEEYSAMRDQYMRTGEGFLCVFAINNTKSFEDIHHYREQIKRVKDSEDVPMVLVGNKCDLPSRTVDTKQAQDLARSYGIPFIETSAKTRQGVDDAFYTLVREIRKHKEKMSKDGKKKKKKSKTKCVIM
- EXPERIMENT: KRAS_G12D pERK assay (cellular pERK HTRF assay)
- Type: cell-based
- Set-up: host or cells: A427 or HPAF-II
- MEASUREMENT_PARAMETERS: KRAS G12D cells (A427, HPAF-II named in method), 2 hours incubation, Phospho-ERK 1/2 HTRF; read-out: G12D_PERK (KRAS_G12D pERK assay IC50)

[
  {
    "COMPOUND": "C[C@H](Oc1nc2c(F)c(-c3cccc(Cl)c3Cl)c(CCC#N)cc2c2c1c(=O)c(-c1cnn(C)c1)cn2[C@H]1[C@H]2CN[C@@H]1C2)[C@@H]1CCCN1C (single isomer, unassigned) [Example 24a]",
    "ASSAY_SYSTEM": "KRAS G12D (Homo sapiens, UniProt P01116, G12D)",
    "IC50": "5000 to 10000 nM"
  },
  {
    "COMPOUND": "C[C@H](Oc1nc2c(F)c(-c3cccc4ccc(F)cc34)c(CCC#N)cc2c2c1NC(=O)CN2C1C2CNC1C2)[C@@H]1CCCN1C (single isomer, unassigned)",
    "ASSAY_SYSTEM": "KRAS G12D (Homo sapiens, UniProt P01116, G12D)",
    "IC50": "≤ 100 nM"
  },
  {
    "COMPOUND": "C[C@H](Oc1nc2c(F)c(-c3cc(O)cc4ccc(F)cc34)c(CCC#N)cc2c2c1NC(=O)CN2C1C2CNC1C2)[C@@H]1CCCN1C (single isomer, unassigned) [Example 4c]",
    "ASSAY_SYSTEM": "KRAS G12D (Homo sapiens, UniProt P01116, G12D)",
    "IC50": "≤ 100 nM"
  }
]
